# Test system: HT29 colon
# measurement protocol: NCI tumour cell line growth inhibition, 48 h; in the data active = GI50 below about 0.43 µM; inactive = the rest
Outcomes: 1 (yes) = active, 0 (no) = inactive

> print(dat)
                                    compound         tgt  label.value
 1  CN1/C(=C\C(I)C(I)C2=[N+](C)c3ccccc3C2(C)C)C(C)(C)c2ccccc21 (configuration not stated)  HT29 colon      1 (yes)
 2  COc1ccc(N2CCN(C(=O)c3ccccc3Nc3ccnc(C(F)(F)F)c3)CC2)cc1  HT29 colon       0 (no)
 3  C#CCN1C(=O)/C(=c2\sc3n(c2=O)C2C(NN=3)N(CC)C(=O)N2CC)c2ccccc21 (configuration not stated)  HT29 colon      1 (yes)
 4  C=C1CCC2C3(C)COC(c4ccc(NC(C)=O)cc4)OC3CCC2(C)C1C/C=C1/C(=O)OCC1O (configuration not stated)  HT29 colon       0 (no)
 5           O=C1NC(=O)/C(=C/C=C/c2ccccc2)S1  HT29 colon       0 (no)
 6  O=C1c2ccccc2C(=O)c2c1ccc(C(Br)Br)c2[N+](=O)[O-]  HT29 colon       0 (no)
 7  C=CN1C(=O)OC(c2ccccc2)C1c1ccccc1 (configuration not stated)  HT29 colon       0 (no)
 8  O=C1c2[nH]cc(CN3CCNCC3)c2C(=O)c2c1c(O)c1ccccc1c2O  HT29 colon       0 (no)
 9  COc1ccc(-c2oc(=O)ccc2C#Cc2cc(OC)c(OC)c(OC)c2)cc1O  HT29 colon       0 (no)
10   CN(C)CCCNc1nn2c(=O)c3ccccc3nc2c2ccccc12  HT29 colon       0 (no)
11  COC(=O)C[CH](C(=O)OC)[Ge]([CH3])([CH3])[S]c1ccccc1 (configuration not stated)  HT29 colon       0 (no)
12  CCN(CC)CCN1C(=O)c2c(c(C)c3c(oc4cc(O)ccc43)c2C)C1=O  HT29 colon       0 (no)

----------
Here the recorded TGI is given for each entry.
# Test system: SF-268 CNS
# measurement protocol: NCI tumour cell line growth inhibition, 48 h
assay readout: TGI

> print(dat)
                                   compound  recorded.result
1  N#Cc1cccc(NC(=O)c2ccc(C(=O)O)c(C(=O)c3ccc(C(=O)O)c(C(=O)Nc4cccc(C#N)c4)c3)c2)c1         > 100 µM
2  CC(=O)NC1C(CO)O[C@@H]2OC(C)(C)O[C@H]12 (stereo not given in full)         > 100 µM
3  COc1ccc(-c2ccc3c(NC(=O)C4CC4)n[nH]c3n2)cc1          > 25 µM
4  O=C(/C=C/c1ccc(-c2ccccc2[N+](=O)[O-])o1)NCc1ccc(C(=O)NCCc2ccccc2)cc1         > 100 µM
5                     c1ccc(CCN2CCCCCC2)nc1         > 100 µM

----------
# Test system: UO-31 renal
# measurement protocol: NCI tumour cell line growth inhibition, 48 h
assay readout: TGI

> print(dat)
                                   molecule  recorded.result
1  Cl.[Pt].[c-]1ccccc1-c1ccccn1.c1ccc(P(c2ccccc2)C([PH+](c2ccccc2)c2ccccc2)[PH+](c2ccccc2)c2ccccc2)cc1          6.28 µM
2  Cc1ccc(S(=O)(=O)N(/N=C(\N)Oc2ccc(Cl)cc2)C(=N)Oc2ccc(Cl)cc2)cc1         > 100 µM
3  CN(C(=O)C1(C(=O)C=[N+]=[N-])CC1)c1ccccc1         > 100 µM
4  CC(CCC(=O)O)[C@H]1CCC2[C@H]3C(CC[C@@]21C)[C@@]1(C)CCC(O)C[C@H]1C[C@@H]3O (some centres undefined)         > 100 µM
